# target or test system: ScLsb1
# assay method text: SPOT peptide array binding signal intensity (averaged, normalized) (arbitrary units (background-subtracted, floor 0; scale differs between SH3 domains)); higher = stronger binding of the SH3 domain to the peptide
Lab note: anything with SPOT peptide array binding signal intensity at or over 100 counts as rule met; the rest go in rule not met.

I'd appreciate it if you could say whether `MSPLGAPPPPPHKDH` has SPOT peptide array binding signal intensity at least equal to 100.
rule not met

---
I'd appreciate it if you could say whether `AHFQPQRTAPKPPIS` has SPOT peptide array binding signal intensity at least equal to 100.
rule not met

Given `SRYRRPLTLLLLKPF` , state whether its SPOT peptide array binding signal intensity is at least 100.
rule not met

Answer whether SPOT peptide array binding signal intensity of `EEEEEHPPLPARRKS` is greater than or equal to 100.
rule met

Does SPOT peptide array binding signal intensity meet or surpass 100 for `VLRFLGFPLPIFEKG` ?
rule not met

Reported SPOT peptide array binding signal intensity at or above 100? `RAPPPVPKKPSSRIA`
rule met

Given `NRPAIRIPSLKKPAL` , state whether its SPOT peptide array binding signal intensity is at least 100.
rule met
